Data origin, for the record: ChEMBL document CHEMBL4002545

test system: Bacillus subtilis; test: Anti-bacterial activity against Bacillus subtilis ATCC 33712 measured after 24 hrs by microtiter broth dilution method; format: functional; settings: ATCC 33712, 24 h
measuredProperty: MIC (µg/mL)

INSERT INTO assay_data (recordsmiles, testsystem, measuredproperty, readoutunits, reported) VALUES
  ('CC(C)(C)c1ccc(O[C@@H](Cc2ccc3oc(CCc4ncco4)nc3c2)C(=O)O)cc1', 'Bacillus subtilis', 'MIC', 'µg/mL', 200),
  ('CCCCCCCc1nc2cc(C[C@H](Oc3ccc(C(C)(C)C)cc3)C(=O)O)ccc2o1', 'Bacillus subtilis', 'MIC', 'µg/mL', 0.78),
  ('CC(C)(C)c1ccc(O[C@@H](Cc2ccc3oc(CC4CCOCC4)nc3c2)C(=O)O)cc1', 'Bacillus subtilis', 'MIC', 'µg/mL', 200),
  ('CC(C)Cc1nc2cc(C[C@H](Oc3ccc(C(C)(C)C)cc3)C(=O)O)ccc2o1', 'Bacillus subtilis', 'MIC', 'µg/mL', 1.56),
  ('CC(C)(C)c1ccc(O[C@@H](Cc2ccc3oc(CCc4ccc(F)cc4)nc3c2)C(=O)O)cc1', 'Bacillus subtilis', 'MIC', 'µg/mL', 0.39);

----------
MIC overview
tested on: Bacillus subtilis; test: Anti-bacterial activity against Bacillus subtilis ATCC 33712 measured after 24 hrs by microtiter broth dilution method; type: functional; settings: ATCC 33712, 24 h
measuredProperty: MIC (µg/mL)

INSERT INTO assay_data (recordsmiles, measuredproperty, reported) VALUES
  ('Cc1oc(-c2ccccc2)nc1CCc1nc2cc(C[C@H](Oc3ccc(C(C)(C)C)cc3)C(=O)O)ccc2o1', 'MIC', 0.78),
  ('CO/N=C(\C(=O)N[C@@H]1C(=O)N2C(C(=O)O)=C(COC(C)=O)CS[C@H]12)c1csc(N)n1', 'MIC', 0.78),
  ('CC(C)(C)c1ccc(O[C@@H](Cc2ccc3oc(CCc4cn5cc(C(F)(F)F)ccc5n4)nc3c2)C(=O)O)cc1', 'MIC', 50),
  ('CC(C)c1ccc(CCc2nc3cc(C[C@H](Oc4ccc(C(C)(C)C)cc4)C(=O)O)ccc3o2)cc1', 'MIC', 0.098);

----------
system: Candida albicans; test: microbe, parasite or virus in culture; format: functional; details: ATCC 10231, 24 h
Description: Anti-fungal activity against Candida albicans ATCC 10231 measured after 24 hrs by microtiter broth dilution method
MIC values by entry
measuredProperty: MIC

INSERT INTO measurements (molecule, reported) VALUES
  ('CC(C)(C)c1ccc(O[C@@H](Cc2ccc3oc(CCc4cn5cc(C(F)(F)F)ccc5n4)nc3c2)C(=O)O)cc1', '> 200 µg/mL'),
  ('COc1cc(CCc2nc3cc(C[C@H](Oc4ccc(C(C)(C)C)cc4)C(=O)O)ccc3o2)cc(OC)c1OC', '> 200 µg/mL'),
  ('CC(C)(C)c1ccc(O[C@@H](Cc2ccc3oc(CCc4ncco4)nc3c2)C(=O)O)cc1', '> 200 µg/mL'),
  ('CC(=O)N1CCN(c2ccc(OCC3COC(Cn4ccnc4)(c4ccc(Cl)cc4Cl)O3)cc2)CC1 (stereo not drawn)', '< 0.39 µg/mL'),
  ('CC(C)(C)c1ccc(O[C@@H](Cc2ccc3oc(CC4CCOCC4)nc3c2)C(=O)O)cc1', '> 200 µg/mL'),
  ('CCCCCCCc1nc2cc(C[C@H](Oc3ccc(C(C)(C)C)cc3)C(=O)O)ccc2o1', '> 200 µg/mL'),
  ('CC(C)c1ccc(CCc2nc3cc(C[C@H](Oc4ccc(C(C)(C)C)cc4)C(=O)O)ccc3o2)cc1', '> 200 µg/mL'),
  ('CC(C)(C)c1ccc(O[C@@H](Cc2ccc3oc(CCc4cc5ccccc5o4)nc3c2)C(=O)O)cc1', '> 200 µg/mL');

----------
system: Candida albicans; assay: microbe, parasite or virus in culture; format: functional; conditions: ATCC 10231, 24 h
measuredProperty: MIC

INSERT INTO assay_data (molecule, measuredproperty, reported) VALUES
  ('CC(C)(C)c1ccc(O[C@@H](Cc2ccc3oc(CCc4ccc(F)cc4)nc3c2)C(=O)O)cc1', 'MIC', '> 200 µg/mL'),
  ('Clc1ccc(COC(Cn2ccnc2)c2ccc(Cl)cc2Cl)c(Cl)c1.O=[N+]([O-])O (stereo unspecified) [MICONAZOLE NITRATE]', 'MIC', '1.56 µg/mL'),
  ('CC(C)Cc1nc2cc(C[C@H](Oc3ccc(C(C)(C)C)cc3)C(=O)O)ccc2o1', 'MIC', '> 200 µg/mL'),
  ('Cc1oc(-c2ccccc2)nc1CCc1nc2cc(C[C@H](Oc3ccc(C(C)(C)C)cc3)C(=O)O)ccc2o1', 'MIC', '> 200 µg/mL'),
  ('CC(C)(C)c1ccc(O[C@@H](Cc2ccc3oc(CCc4ccccc4)nc3c2)C(=O)O)cc1', 'MIC', '> 200 µg/mL'),
  ('Cc1oc(-c2ccccc2)nc1CCCc1nc2cc(C[C@H](Oc3ccc(C(C)(C)C)cc3)C(=O)O)ccc2o1', 'MIC', '> 200 µg/mL');

----------
test system: Staphylococcus aureus; experiment: Anti-bacterial activity against Staphylococcus aureus ATCC 10832 measured after 24 hrs by microtiter broth dilution method; format: functional; settings: ATCC 10832, 24 h
measuredProperty: MIC (µg/mL)

INSERT INTO measurements (molecule, inequalitysymbol, reported) VALUES
  ('CC(C)(C)c1ccc(O[C@@H](Cc2ccc3oc(CCc4cn5cc(C(F)(F)F)ccc5n4)nc3c2)C(=O)O)cc1', '=', 50),
  ('CC(C)(C)c1ccc(O[C@@H](Cc2ccc3oc(CCc4ccccc4)nc3c2)C(=O)O)cc1', '=', 1.56),
  ('CC(C)c1ccc(CCc2nc3cc(C[C@H](Oc4ccc(C(C)(C)C)cc4)C(=O)O)ccc3o2)cc1', '=', 0.39),
  ('CC1=C(C(=O)O)N2C(=O)[C@@H](NC(=O)[C@H](N)C3=CCC=CC3)[C@H]2SC1', '=', 25),
  ('CC(C)(C)c1ccc(O[C@@H](Cc2ccc3oc(CCc4ncco4)nc3c2)C(=O)O)cc1', '>', 200),
  ('CC(C)(C)c1ccc(O[C@@H](Cc2ccc3oc(CCc4cc5ccccc5o4)nc3c2)C(=O)O)cc1', '=', 0.78),
  ('CC(C)(C)c1ccc(O[C@@H](Cc2ccc3oc(CCc4ccc(F)cc4)nc3c2)C(=O)O)cc1', '=', 1.56),
  ('Cc1oc(-c2ccccc2)nc1CCc1nc2cc(C[C@H](Oc3ccc(C(C)(C)C)cc3)C(=O)O)ccc2o1', '=', 1.56),
  ('CC1(C)S[C@@H]2[C@H](NC(=O)Cc3ccccc3)C(=O)N2[C@H]1C(=O)[O-].[Na+] [PENICILLIN G SODIUM]', '=', 3.12),
  ('CC(C)(O/N=C(\C(=O)N[C@@H]1C(=O)N2C(C(=O)[O-])=C(C[n+]3ccccc3)CS[C@H]12)c1csc(N)n1)C(=O)O', '=', 0.78),
  ('Cc1oc(-c2ccccc2)nc1CCCc1nc2cc(C[C@H](Oc3ccc(C(C)(C)C)cc3)C(=O)O)ccc2o1', '=', 1.56),
  ('CO/N=C(\C(=O)N[C@@H]1C(=O)N2C(C(=O)O)=C(COC(C)=O)CS[C@H]12)c1csc(N)n1', '=', 3.12),
  ('COc1cc(CCc2nc3cc(C[C@H](Oc4ccc(C(C)(C)C)cc4)C(=O)O)ccc3o2)cc(OC)c1OC', '=', 100),
  ('CCCCCCCc1nc2cc(C[C@H](Oc3ccc(C(C)(C)C)cc3)C(=O)O)ccc2o1', '=', 0.78);

----------
tested on: Bacillus subtilis; assay: Anti-bacterial activity against Bacillus subtilis ATCC 33712 measured after 24 hrs by microtiter broth dilution method; format: functional; details: ATCC 33712, 24 h
log10 MIC for assorted molecules
measuredProperty: log10 MIC (log10 of the value in µg/mL)

INSERT INTO results (molecule, measuredproperty, reported) VALUES
  ('CC1(C)S[C@@H]2[C@H](NC(=O)Cc3ccccc3)C(=O)N2[C@H]1C(=O)[O-].[Na+] [PENICILLIN G SODIUM]', 'log10 MIC', -0.71),
  ('COc1cc(CCc2nc3cc(C[C@H](Oc4ccc(C(C)(C)C)cc4)C(=O)O)ccc3o2)cc(OC)c1OC', 'log10 MIC', 2.00),
  ('CC1=C(C(=O)O)N2C(=O)[C@@H](NC(=O)[C@H](N)C3=CCC=CC3)[C@H]2SC1', 'log10 MIC', 1.70),
  ('Cc1oc(-c2ccccc2)nc1CCCc1nc2cc(C[C@H](Oc3ccc(C(C)(C)C)cc3)C(=O)O)ccc2o1', 'log10 MIC', 0.49),
  ('CC(C)(C)c1ccc(O[C@@H](Cc2ccc3oc(CCc4ccccc4)nc3c2)C(=O)O)cc1', 'log10 MIC', -0.41),
  ('CC(C)(C)c1ccc(O[C@@H](Cc2ccc3oc(CCc4cc5ccccc5o4)nc3c2)C(=O)O)cc1', 'log10 MIC', -0.41),
  ('CC(C)(O/N=C(\C(=O)N[C@@H]1C(=O)N2C(C(=O)[O-])=C(C[n+]3ccccc3)CS[C@H]12)c1csc(N)n1)C(=O)O', 'log10 MIC', 0.80);
